Test system: SNB-75 CNS
Please state which outcome applies, choosing from y for active, n for inactive

For orientation, consider the following solved cases.
                                   molecule  assigned_class
0  CC1(C)CC(=O)C2=C(C1)NC(SSC1=C(C#N)C(c3ccc(F)cc3)C3=C(CC(C)(C)CC3=O)N1)=C(C#N)C2c1ccc(F)cc1 (centres undefined)               n
1  COc1ccc(/C(C)=C(\c2ccc(Cl)cc2)c2ccc(OCCN3CCCC3)cc2)cc1F               n
2  CCN(CC)CCOc1ccc(/C(=C(\C)Cc2ccc(OC)cc2)c2ccc(OC(=O)NCc3ccccc3)cc2)cc1               n

[in] Assay result, entry Cc1c2c(nn1C(=O)c1nn(-c3ccc(Cl)cc3)cc1O)-c1ccccc1CC2 — outcome?
[out] y

====

Tested on: RPMI-8226 leukemia
Test: NCI tumour cell line growth inhibition, 48 h
Collected log10(TGI) values appear next to each entry.
Please note: log10 values; quantity TGI; unit µM.

Please review the entries below; each comes with its answer.
>>> df
                           structure_string  readout_value
0  C=C1C(=O)O[C@@H]2C(=O)[C@@H](C)[C@@H]3C=CC(=O)[C@@]3(C)[C@@H](OC(=O)/C(C)=C\C)[C@H]12           0.10
1        O=c1cc(-c2ccc(Cl)cc2)[nH]c2ncccc12           1.98
2    NC1=C(Cl)C(=O)c2ccc(S(N)(=O)=O)cc2C1=O           0.31
3  c1cc(OCCN2CCCCCC2)ccc1CNc1ccc2nc(CCC3CCCCC3)[nH]c2c1           0.58

Pending compound:
[in] Endpoint output: log10(TGI) of CCOC(=O)/C(=C\NCC(OCC)OCC)c1nc2ccccc2[nH]1 . Value?
[out] 1.60

====

Entries and their TGI
Tested on: NCI-H522 lung
Assay: NCI tumour cell line growth inhibition, 48 h

compound	subject-of-test	value-type	readout-value
Cc1cn(C2CC(O)C(Cn3cc(Cn4ncc(=O)[nH]c4=O)nn3)O2)c(=O)[nH]c1=O (stereo not given)	NCI-H522 lung	TGI	> 100 µM
Cn1ncc2c(/N=C/c3cccs3)[nH]c(=S)nc21	NCI-H522 lung	TGI	> 100 µM
O=c1c2ccccc2nc(-c2ccc(Br)cc2)n1NC1OC(CO)C(O)C(O)C1O (stereo not given)	NCI-H522 lung	TGI	> 100 µM

[in] Recorded TGI for Cc1ccccc1NC(=O)C(=O)C(c1cnc2ccc([N+](=O)[O-])cc2n1)[N+](=O)[O-] (stereo not given) , please?
[out] > 100 µM

[in] Which TGI is listed for CN(C)CCCN(c1nc(C(Cl)(Cl)Cl)ns1)c1nc(C(Cl)(Cl)Cl)ns1 ?
[out] 3.45 µM

[in] Returns the measured TGI for the input compound. Input: CN(c1ccccc1)S(=O)(=O)c1ccccc1[N+](=O)[O-]
[out] > 100 µM

[in] Any idea what TGI was measured for COc1ccc(N=c2ssc(C(=S)Nc3ccc(OC)cc3)c2S)cc1 ?
[out] > 100 µM

[in] Can you share its TGI? I mean this compound: O=S(=O)(O)c1cccc2c(N=Nc3c(O)ccc4ccccc34)cccc12
[out] > 100 µM

====

Test system: SW-620 colon
The reply should name one outcome from y for active, n for inactive

Here are 5 compounds together with their reported answers.
compound	subject-of-test	assigned-class
COc1ccc(-c2nn(-c3cccc(NC(=O)Nc4ccc(Cl)c(C(F)(F)F)c4)c3)cc2-c2ccncc2)cc1Cl	SW-620 colon	n
CC(=O)O[C@H]1C(=O)O[C@@H]2C[C@H]3C(C)=CC(=O)[C@@H](O)[C@]3(C)[C@H]3[C@@]4(O)OC[C@]32[C@@H]1[C@@H](C)[C@H]4O	SW-620 colon	y
O=C(Nc1ccccc1)Nc1cccc(-n2cc(-c3ccncc3)c(-c3ccc(O)c(Cl)c3)n2)c1	SW-620 colon	n
O=C(O)c1ccc2c(c1Nc1ccccc1)C(=O)c1ccccc1C2=O	SW-620 colon	n
CCN(CC)CCOc1ccc(/C(=C(\C)Cc2ccc(OC)cc2)c2ccc(OC(=O)NCc3ccccc3)cc2)cc1	SW-620 colon	n

Shift focus to the following entry.
[in] Called result for Cn1ncc2c(/N=C/c3cccs3)[nH]c(=S)nc21
[out] n

====

Test system: M14 melanoma
Experiment: NCI tumour cell line growth inhibition, 48 h
Measured TGI of individual entries

[in] Need TGI of CC(C)NCC(O)COC(=O)c1cccs1 (stereo not drawn) , thanks.
[out] > 100 µM

[in] Could you share which TGI value was measured for COc1ccc(CNC2=C(NC(C)=O)C(=O)c3ccccc3C2=O)cc1 ?
[out] > 50 µM

[in] What measured TGI goes with C=C[C@]1(C)CCC2=C(CCC3C2(C)CCC[C@]3(C)CO)C1 (stereo partly drawn) ?
[out] > 100 µM

[in] Entry under review: Cc1cc2c(cc1Cl)SC(N/N=C(\N)c1ccc(Cl)cc1)=NS2(=O)=O . Reported TGI?
[out] > 100 µM

[in] Fill in the blank: the reported TGI of COC(=O)C(=O)c1c2ccccc2n2ccc3c4ccccc4[nH]c3c12 is ____.
[out] > 10 µM

[in] May I ask what TGI has been recorded for O=C(O)C1NCCc2c1[nH]c1ccccc21 (stereo not drawn) ?
[out] > 100 µM

====

System: COLO 205 colon
Test: NCI tumour cell line growth inhibition, 48 h
value-type: TGI

Examples with answers:
In [3]: df
Out[3]:
                                   compound  subject_of_test  value_type  readout_value
0  O=C(c1cccc(OCc2ccccc2)c1OCc1ccccc1)N1CCSC1=S   COLO 205 colon         TGI        26.4 µM
1  C[C@]12CCC(=O)C=C1CC[C@@H]1[C@@H]2CC[C@]2(C)C(=O)[C@H](n3ccnc3)C[C@@H]12   COLO 205 colon         TGI       > 100 µM
2  CC(=O)OC1CC(O)CC2=CCC3C4CCC(C(C)(O)C(O)CC5COC(=O)C5C)C4(C)CCC3C21C (stereo not given)   COLO 205 colon         TGI        > 25 µM

Next compound, TGI to be filled in.
[in] Return TGI measured with COLO 205 colon given this compound: CN(CCCNC(=O)c1cn(C)c2c1ccc1cc(Cl)c(Cl)cc12)CCCNC(=O)c1cn(C)c2c1ccc1cc(Cl)c(Cl)cc12
[out] 9.58 µM

====

System: NCI-H23 lung
Experiment: NCI tumour cell line growth inhibition, 48 h
As shown below, each of these compounds has a reported TGI value.

Past entries and their recorded results:
compound	subject-of-test	TGI
COC(=O)CCC(NC(=O)C(C)NC(=O)COC1C(O)C(OC(=O)CCNc2c3ccccc3nc3cccc([N+](=O)[O-])c23)OC(OCc2ccccc2)C1NC(C)=O)C(N)=O (stereo not given)	NCI-H23 lung	> 10 µM
O=C(CCN1CC2CCC(CC2)C1)c1cccs1	NCI-H23 lung	36.7 µM
COC1O[C@@H]2CCN3C(=O)[C@@H](OC(=O)c4ccc([N+](=O)[O-])cc4)[C@H]1C23 (stereo not given in full)	NCI-H23 lung	> 100 µM
CCOC(=O)c1sc2nc(SC)nc3c2c1N=CN3c1ccccc1Cl	NCI-H23 lung	> 100 µM
O=C(Cn1cc(-c2ccccc2)nn1)NC1CCCC1	NCI-H23 lung	> 100 µM
Cc1cccc(N=Nc2c(C)nn(C(=O)CC(=O)Nc3ccccc3)c2C)c1	NCI-H23 lung	> 100 µM

[in] Consider the compound COC(=O)C1Cc2cccc(C)c2C1 (stereo not given) and give its measured TGI.
[out] > 100 µM

[in] Need TGI of Cc1c(C(=O)CC(=O)C(=O)Nc2ccc(Cl)c(Cl)c2)[n+](=O)c2ccccc2n1[O-] , thanks.
[out] 96 µM

[in] Fill in the blank: the reported TGI of COc1ccc(/C(C)=C(\c2ccc(Cl)cc2)c2ccc(OCCN3CCCC3)cc2)cc1F is ____.
[out] 7.27 µM

[in] I am curious: what TGI value has been reported for Cc1ccc2c(c1)C(=O)C(Cc1ccccc1C(=O)O)C2 (stereo not given) ?
[out] > 100 µM

====

System: CAKI-1 renal
The categories you may choose from are Y (active), N (inactive)

Solved cases (8 shown):
>>> print(df.to_string())
                           structure_string  subject_of_test  assigned_class
0               O=C1C(=O)c2ccccc2-c2ccccc21     CAKI-1 renal               N
1  CC(=O)O[C@H]1C(=O)O[C@@H]2C[C@H]3C(C)=CC(=O)[C@@H](O)[C@]3(C)[C@H]3[C@@]4(O)OC[C@]32[C@@H]1[C@@H](C)[C@H]4O     CAKI-1 renal               Y
2  c1cc(OCCN2CCCCCC2)ccc1CNc1ccc2nc(CCC3CCCCC3)[nH]c2c1     CAKI-1 renal               N
3     O=C(Nc1n[nH]c2nc(-c3ccco3)ccc12)C1CC1     CAKI-1 renal               N
4  COc1cc(C#N)cc(OC)c1OCCOCCOc1c(OC)cc(C#N)cc1OC     CAKI-1 renal               N
5    NC1=C(Cl)C(=O)c2ccc(S(N)(=O)=O)cc2C1=O     CAKI-1 renal               N
6  COc1cc2ccc3c4c(OC)cc(OC)c(OC)c4c(=O)n(C)c3c2cc1OC     CAKI-1 renal               N
7  O=C(Nc1nccs1)c1cc2c(cc1Cl)Sc1nccn1S2(=O)=O     CAKI-1 renal               N

[in] What is the recorded call for this compound in the test? S=c1nc2[nH]ncc2c(N/N=C/c2ccccc2)[nH]1
[out] N

[in] Status in this test for Cn1ncc2c(/N=C/c3cccs3)[nH]c(=S)nc21 ?
[out] N

[in] Short answer needed: outcome of this test for Cc1ccc(S(=O)(=O)/N=c2\ssc(Nc3ccccc3)c2Cl)cc1 ?
[out] N
